test: Stability of non-dihydrate azithromycin in constituted suspension: conversion to dihydrate (form A) quantified by SS-NMR; type: physicochemical; details: Formulation II constituted with 18 ml water, 5° C., day 10
Quantity Name: % A (%)

(I) CCC1OC(=O)C(C)C(O[C@H]2C[C@@](C)(OC)[C@@H](O)C(C)O2)C(C)[C@@H](OC2OC(C)CC(N(C)C)[C@H]2O)[C@@](C)(O)C[C@@H](C)CN(C)[C@H](C)[C@@H](O)[C@]1(C)O (stereo partly shown) [Form M]
(II) CCC1OC(=O)C(C)C(O[C@H]2C[C@@](C)(OC)[C@@H](O)C(C)O2)C(C)[C@@H](OC2OC(C)CC(N(C)C)[C@H]2O)[C@@](C)(O)C[C@@H](C)CN(C)[C@H](C)[C@@H](O)[C@]1(C)O (stereo partly shown) [Form J]
In terms of reported % A, does I or II have the smaller number? Use the label to indicate which entry you chose.
II
